- Measurement Setup: 1 μM, 30 minutes, 37° C., NADPH
Property Label: MS(Microsomal Stability) (%) rat
Numbers only, in %.

Cc1ccc(/C(=C(\CCCO)c2ccccc2)c2ccc(N3CCN(C(C)C)CC3)cc2)cc1 [Compound 18b]: 40.0
OCCC/C(=C(\c1ccc(O)cc1)c1ccc(C2CCN(C3CC3)CC2)cc1)c1ccccc1 [Compound 22i]: 92.6

Below: the item to evaluate.
# return recorded MS(Microsomal Stability) (%) rat for entry CN1CCN(c2ccc(/C(=C(/CCCO)c3ccccc3)c3ccc(OC(=O)C(C)(C)C)cc3)cc2)CC1 [Compound 28e]
59.6

###

- Target Desc: CYP2D6 (Homo sapiens (Human), UniProt P10635)
- Sequence (P10635 whole entry): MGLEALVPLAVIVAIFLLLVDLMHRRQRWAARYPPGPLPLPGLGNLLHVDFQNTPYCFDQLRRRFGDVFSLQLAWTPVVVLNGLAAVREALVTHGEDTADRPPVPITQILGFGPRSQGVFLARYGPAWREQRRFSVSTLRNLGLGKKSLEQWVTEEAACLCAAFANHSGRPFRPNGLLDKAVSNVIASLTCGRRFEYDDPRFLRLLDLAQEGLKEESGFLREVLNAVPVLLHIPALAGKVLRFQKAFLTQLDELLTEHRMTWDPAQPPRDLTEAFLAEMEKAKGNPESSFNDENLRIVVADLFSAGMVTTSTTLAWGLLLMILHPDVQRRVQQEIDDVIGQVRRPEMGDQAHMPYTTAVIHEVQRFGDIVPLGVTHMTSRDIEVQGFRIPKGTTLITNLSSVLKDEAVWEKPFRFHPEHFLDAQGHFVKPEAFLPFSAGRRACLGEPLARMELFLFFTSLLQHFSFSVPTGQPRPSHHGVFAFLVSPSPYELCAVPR
- Test Description: Cytochrome P450 activity inhibition, CYP2D6
- Assay type: in vitro ADME
- Measurement Setup: 10 μM, human liver microsomes, Dextromethorphan substrate
Property Label: CYP inhibition (% of control) 2D6

Solved cases (4 shown):
CN1CCN(c2ccc(/C(=C(/CCCO)c3ccccc3)c3ccc([N+](=O)[O-])cc3)cc2)CC1 [Compound 18c]: 75.6 % of control
CC(C)N1CCC(c2ccc(/C(=C(/CCCO)c3ccccc3)c3cccc(O)c3)cc2)CC1 [Compound 22m]: 70.7 % of control
OCCC/C(=C(\c1ccc(O)cc1)c1ccc(C2=CCN(C3CC3)CC2)cc1)c1ccccc1 [Compound 22j]: 97.1 % of control
Nc1ccc(/C(=C(\CCCO)c2ccccc2)c2ccc(C3CCN(C4CC4)CC3)cc2)cc1 [Compound 26d]: 86.1 % of control

We next turn to a different molecule, shown below.
In one line, give reported CYP inhibition (% of control) 2D6 of the entry CC(C)N1CCN(c2ccc(C(=C(CCCO)c3ccccc3)c3ccc(O)cc3)cc2)CC1 [Compound 18a] .
63.5 % of control

###

- Target Desc: UniProt P33261
- Sequence (P33261 whole entry): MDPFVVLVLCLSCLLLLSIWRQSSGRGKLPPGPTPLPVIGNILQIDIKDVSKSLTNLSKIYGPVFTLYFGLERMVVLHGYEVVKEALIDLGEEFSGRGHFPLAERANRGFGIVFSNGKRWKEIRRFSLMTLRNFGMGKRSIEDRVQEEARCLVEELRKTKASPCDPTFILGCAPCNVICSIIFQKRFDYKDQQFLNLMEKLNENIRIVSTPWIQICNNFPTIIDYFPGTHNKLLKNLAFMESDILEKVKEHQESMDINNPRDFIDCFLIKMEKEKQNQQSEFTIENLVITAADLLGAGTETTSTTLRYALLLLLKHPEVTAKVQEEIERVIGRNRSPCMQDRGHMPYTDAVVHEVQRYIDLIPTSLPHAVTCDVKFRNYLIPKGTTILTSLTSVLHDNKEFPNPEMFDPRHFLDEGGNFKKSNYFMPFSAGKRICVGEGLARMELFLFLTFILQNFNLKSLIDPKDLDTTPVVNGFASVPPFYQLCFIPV
- Test Description: Cytochrome P450 activity inhibition, CYP2C19
- Assay type: in vitro ADME
- Measurement Setup: 10 μM, human liver microsomes, S-mephenytoin substrate
Task for the reader: assign each of the following compounds its reported CYP inhibition (% of control) 2C19.

Please review the entries below; each comes with its answer.
OCCC/C(=C(\c1ccc(O)cc1)c1ccc(N2CCN(C3CCC3)CC2)cc1)c1ccccc1 [Compound 22q]: 92.8 % of control
CCN1CCN(c2ccc(/C(=C(/CCCO)c3ccccc3)c3ccc(C)cc3)cc2)CC1 [Compound 18j]: 74 % of control

For every item in the list below, what is its measured CYP inhibition (% of control) 2C19?
1. CN1CCN(c2ccc(/C(=C(/CCCO)c3ccccc3)c3ccc(N)cc3)cc2)CC1 [Compound 26a]
2. OCCC/C(=C(\c1ccc(O)cc1)c1ccc(OCCN2CCC[C@@H]2CO)cc1)c1ccccc1 [Compound 38c]
3. CC(C)N1CCC(c2ccc(/C(=C(/CCCO)c3ccccc3)c3ccc(O)cc3)cc2)CC1 [Compound 22k]

89 % of control
58.8 % of control
>100 % of control

###

- Target Desc: UniProtKB P10635
- Test Description: Cytochrome P450 activity inhibition, CYP2D6
- Assay type: in vitro ADME
- Measurement Setup: 10 μM, human liver microsomes, Dextromethorphan substrate
Property Label: CYP inhibition (% of control) 2D6

Please review the entries below; each comes with its answer.
OCCC/C(=C(\c1ccc(O)cc1)c1ccc(N2CCNCC2)cc1)c1ccccc1 [Compound 20j]: 89.3 % of control
CCN1CCC(c2ccc(C(=C(CCCO)c3ccccc3)c3cccc(O)c3)cc2)CC1 [Compound 22ae]: 68.4 % of control

Now for the molecule whose CYP inhibition (% of control) 2D6 we want.
Consider the molecule OCCC/C(=C(\c1ccc(O)cc1)c1ccc(N2CCN(C3CCCCC3)CC2)cc1)c1ccccc1 [Compound 22p] and give its recorded CYP inhibition (% of control) 2D6.
79.6 % of control
